- STUDY_TARGET: Avi-hGCPII (recombinant extracellular human GCPII) (Homo sapiens, UniProt Q04609)
- Construct: gene FOLH1
- Sequence (Q04609 44-750 limits assumed): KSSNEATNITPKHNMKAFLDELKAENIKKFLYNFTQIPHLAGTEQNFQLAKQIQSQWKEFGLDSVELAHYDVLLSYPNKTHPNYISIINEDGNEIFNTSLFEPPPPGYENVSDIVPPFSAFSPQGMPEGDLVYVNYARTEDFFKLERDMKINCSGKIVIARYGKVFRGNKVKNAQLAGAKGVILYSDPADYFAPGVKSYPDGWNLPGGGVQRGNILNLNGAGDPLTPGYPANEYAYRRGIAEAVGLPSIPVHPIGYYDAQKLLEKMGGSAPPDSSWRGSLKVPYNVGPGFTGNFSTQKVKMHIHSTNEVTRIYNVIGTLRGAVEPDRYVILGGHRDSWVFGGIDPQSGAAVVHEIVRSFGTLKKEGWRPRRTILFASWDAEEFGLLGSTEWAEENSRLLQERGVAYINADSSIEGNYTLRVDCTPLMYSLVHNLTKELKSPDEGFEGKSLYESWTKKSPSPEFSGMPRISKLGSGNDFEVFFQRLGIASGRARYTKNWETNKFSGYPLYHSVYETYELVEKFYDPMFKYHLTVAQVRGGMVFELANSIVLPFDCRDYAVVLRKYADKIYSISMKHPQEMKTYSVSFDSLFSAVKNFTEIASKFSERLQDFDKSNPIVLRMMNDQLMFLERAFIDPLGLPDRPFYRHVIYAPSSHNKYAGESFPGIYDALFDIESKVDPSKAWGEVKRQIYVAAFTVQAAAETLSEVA
- MEASUREMENT_DESCRIPTION: HPLC assay of pteroyl-di-L-glutamate cleavage
- Assay type: biochemical
- APPLIED_CONDITIONS: substrate pteroyl-di-L-glutamate ([…] final), […] Bis-Tris propane, […] NaCl, pH […] °C; read-out: K i (Avi-hGCPII)
pKi: −log10 of the molar value.

COMPOUND | pKi
O=C(O)CCc1ccc(O)c(CN(CCN(CC(=O)O)Cc2cc(CCC(=O)NCCCCCC(=O)NCCCC[C@H](NC(=O)N[C@@H](CCC(=O)O)C(=O)O)C(=O)O)ccc2O)CC(=O)O)c1 [DKFZ-PSMA-11] | 10.74
